src = patent US6531446B1

Measured Minimal Inhibitory Concentrations values are reported for all entries that follow.
- System: Bacillus subtilis
- Type: cell-based
- condition_description: Gram-positive; second part of Table 2
- Method: By using the peptides as in Example 1, the minimal inhibitory concentration of the peptides were determined against a variety of microorganisms. Bacteria and fungi were incubated overnight in Mller-Hinton and Saboraud media, respectively, at 37 and 30° C., respectively, and were inoculated in media for 2 hours to a midlogarithmic phase. […] The minimal inhibitory concentration was determined at a concentration that inhibits the growth of the microorganisms by measuring the absorbance.
No end group written: not given here.

substance: RKGLQKLVGRVHRLLRK [Seq No. 12]
unit_text: μg/m
Minimal Inhibitory Concentrations: 18

substance: RVHRLLRRVHRLLRRVHRLLR [Seq No. 14]
unit_text: μg/m
Minimal Inhibitory Concentrations: 6

substance: RAGLQFPVGRLLRRLLR [Buf(5-13)[RLLR]2]
unit_text: μg/m
Minimal Inhibitory Concentrations: 4

substance: Arg Ala Gly Leu Gln Phe Pro Val Gly Arg Val His Arg Leu Leu Arg Lys-NH2 (RAGLQFPVGRVHRLLRK-NH2) [Seq No. 16]
unit_text: μg/m
Minimal Inhibitory Concentrations: 1

substance: RLLRRLLRRLLRRLLR [(RLLR)4]
unit_text: μg/m
Minimal Inhibitory Concentrations: 2

* * *

# Minimal Inhibitory Concentrations per entry
- Tested on: Streptococcus mutans
- Assay type: cell-based
- condition_description: Gram-positive; second part of Table 2
- Protocol: By using the peptides as in Example 1, the minimal inhibitory concentration of the peptides were determined against a variety of microorganisms. Bacteria and fungi were incubated overnight in Mller-Hinton and Saboraud media, respectively, at 37 and 30° C., respectively, and were inoculated in media for 2 hours to a midlogarithmic phase. […] The minimal inhibitory concentration was determined at a concentration that inhibits the growth of the microorganisms by measuring the absorbance.
No end group written: not given here.

substance: RLLRRLLRRLLRRLLR [(RLLR)4]
Minimal Inhibitory Concentrations, μg/m: 2

substance: RLLRRLLRRLLR [(RLLR)3]
Minimal Inhibitory Concentrations, μg/m: 16

substance: RKGLQKLVGRVHRLLRK [Seq No. 12]
Minimal Inhibitory Concentrations, μg/m: 36

substance: RVHRLLRRVHRLLRRVHRLLR [Seq No. 14]
Minimal Inhibitory Concentrations, μg/m: 25

substance: RLLRRLLRRLLRRLLRRLLR [Seq No. 13]
Minimal Inhibitory Concentrations, μg/m: 2

substance: RAGLQFPVGRLLR [Buf(5-13)[RLLR]]
Minimal Inhibitory Concentrations, μg/m: 16

substance: RAGLQFPVGRLLRRLLRRLLR [Seq No. 15]
Minimal Inhibitory Concentrations, μg/m: 0.5

substance: RAGLQFPVGRLLRRLLR [Buf(5-13)[RLLR]2]
Minimal Inhibitory Concentrations, μg/m: 16

substance: Arg Ala Gly Leu Gln Phe Pro Val Gly Arg Val His Arg Leu Leu Arg Lys-NH2 (RAGLQFPVGRVHRLLRK-NH2) [Seq No. 16]
Minimal Inhibitory Concentrations, μg/m: 0.5
